# subject of test: Forkhead box protein O1 (Homo sapiens)
# Sequence (Q12778 whole entry): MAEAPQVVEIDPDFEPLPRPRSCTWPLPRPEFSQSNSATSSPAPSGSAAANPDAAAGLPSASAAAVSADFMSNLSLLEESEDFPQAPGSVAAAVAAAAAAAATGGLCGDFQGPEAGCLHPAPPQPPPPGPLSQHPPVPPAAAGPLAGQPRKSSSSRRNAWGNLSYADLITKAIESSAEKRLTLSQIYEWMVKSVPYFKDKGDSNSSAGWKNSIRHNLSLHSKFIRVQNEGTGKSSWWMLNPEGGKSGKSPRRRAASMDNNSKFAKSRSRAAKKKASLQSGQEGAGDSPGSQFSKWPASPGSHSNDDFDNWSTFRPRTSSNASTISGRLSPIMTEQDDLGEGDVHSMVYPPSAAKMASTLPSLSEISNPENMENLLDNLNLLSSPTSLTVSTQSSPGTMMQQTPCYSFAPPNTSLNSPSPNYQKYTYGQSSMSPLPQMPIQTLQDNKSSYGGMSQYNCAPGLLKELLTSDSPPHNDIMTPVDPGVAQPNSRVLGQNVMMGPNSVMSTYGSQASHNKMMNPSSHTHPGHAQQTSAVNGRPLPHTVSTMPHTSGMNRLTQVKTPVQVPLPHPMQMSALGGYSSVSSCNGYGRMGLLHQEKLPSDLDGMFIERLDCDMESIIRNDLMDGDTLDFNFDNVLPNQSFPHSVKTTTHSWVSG
# experiment notes: Inhibition of FOXO-1 in human HepG2 cells incubated for 20 hrs by Renilla luciferase reporter gene assay
quantity kind: pIC50
Please express pIC50 as -log10 of the molar concentration.

Please indicate recorded pIC50 of `CCn1cc(C(=O)O)c(=O)c2c(N)c(F)c(NC3CCCCC3)cc21` measured with Forkhead box protein O1 (Homo sapiens).
7.48

Data origin, for the record: ChEMBL document CHEMBL5143698
